- Target system: T1, interleukin 18 binding protein (IL-18BP) (UniProt O95998 31-194)
- T1 sequence (looked up): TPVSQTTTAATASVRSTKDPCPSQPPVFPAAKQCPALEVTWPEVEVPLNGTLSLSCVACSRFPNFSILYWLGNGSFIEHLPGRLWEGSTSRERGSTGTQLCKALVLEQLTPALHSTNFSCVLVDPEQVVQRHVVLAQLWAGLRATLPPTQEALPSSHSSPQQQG
- Assay info: cell-based or functional assay
Reported values of Ratio (-BP/+BP), DF-10000 for individual entries

Binder	Ratio (-BP/+BP), DF-10000
IL-18 variant S36Q, D40T, K53P, S55L (ligand) YFGKLESKLSVIRNLNDQVLFIDQGNRPLFEDMTDQDMRTNAPRTIFIISMYPDLQPRGMAVTISVKSEKISTLSSENKIISFKEMNPPDNIKDTKSDIIFFQRSVPGHDNKMQFESSSYEGYFLASEKERDLFKLILKKEDELGDRSIMFTVQNED	1.09
IL-18 variant K53D, S55T, H109I (ligand) YFGKLESKLSVIRNLNDQVLFIDQGNRPLFEDMTDSDMRDNAPRTIFIISMYDDTQPRGMAVTISVKSEKISTLSSENKIISFKEMNPPDNIKDTKSDIIFFQRSVPGIDNKMQFESSSYEGYFLASEKERDLFKLILKKEDELGDRSIMFTVQNED	1.1
IL-18 variant D23G, K53Y, S55Y (ligand) YFGKLESKLSVIRNLNDQVLFIGQGNRPLFEDMTDSDMRDNAPRTIFIISMYYDYQPRGMAVTISVKSEKISTLSSENKIISFKEMNPPDNIKDTKSDIIFFQRSVPGHDNKMQFESSSYEGYFLASEKERDLFKLILKKEDELGDRSIMFTVQNED	2.29

The values you see were collected from patent US20240182536A1.
